- MEASURED TARGET: D2 receptors (Rattus norvegicus, UniProt P61169)
- Sequence (P61169 whole entry): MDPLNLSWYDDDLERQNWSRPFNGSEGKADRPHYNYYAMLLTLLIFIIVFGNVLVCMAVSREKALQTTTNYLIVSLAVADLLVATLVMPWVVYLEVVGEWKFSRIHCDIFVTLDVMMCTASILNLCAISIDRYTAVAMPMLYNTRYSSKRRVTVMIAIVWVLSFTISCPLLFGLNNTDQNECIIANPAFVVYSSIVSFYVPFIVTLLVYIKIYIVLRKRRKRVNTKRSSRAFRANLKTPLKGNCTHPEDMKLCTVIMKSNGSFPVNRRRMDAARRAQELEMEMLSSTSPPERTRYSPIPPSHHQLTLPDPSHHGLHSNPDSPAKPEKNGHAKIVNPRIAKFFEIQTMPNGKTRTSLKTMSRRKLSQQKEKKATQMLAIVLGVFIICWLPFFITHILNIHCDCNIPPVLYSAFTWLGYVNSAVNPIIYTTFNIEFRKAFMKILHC
- TEST NAME: biochemical
- Assay type: binding
Where a name gives a salt, the structure may show the parent alone.
ASSAY METRIC: IC50
Just so you know, I need the unit written after the number.

Need IC50, item Cc1coc2cc(OCCCN3CCC(C(=O)c4ccc(F)cc4)CC3)ccc2c1=O [Example 3, hydrochloride]
129 nM

###

Would you mind telling me the reported IC50 of each entry?
- MEASURED TARGET: 5HT1a receptors (Rattus norvegicus, UniProt P19327)
- Sequence (P19327 1-422): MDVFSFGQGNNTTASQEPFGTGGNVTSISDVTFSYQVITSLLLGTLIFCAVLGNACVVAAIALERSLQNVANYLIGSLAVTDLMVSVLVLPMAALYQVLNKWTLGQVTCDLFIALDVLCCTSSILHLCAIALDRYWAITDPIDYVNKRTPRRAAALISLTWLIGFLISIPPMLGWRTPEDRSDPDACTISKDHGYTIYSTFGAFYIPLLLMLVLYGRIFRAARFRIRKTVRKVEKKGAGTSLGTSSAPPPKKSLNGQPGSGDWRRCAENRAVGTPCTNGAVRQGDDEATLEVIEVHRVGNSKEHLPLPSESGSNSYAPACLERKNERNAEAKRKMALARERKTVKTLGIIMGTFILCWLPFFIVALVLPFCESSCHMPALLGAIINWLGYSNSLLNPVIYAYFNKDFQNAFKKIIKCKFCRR
- TEST NAME: biochemical
- Type: binding
- COND: [3H]5-OH-DPAT 1 nM, rat cortex membrane, 20 min, 35° C., pH 7.4; read-out: IC50 (M) 5HT1A
Where a name gives a salt, the structure may show the parent alone.
Provide the reading as a plain figure in M.

Endpoint output: IC50 of Cc1cc(=O)c2ccc(OCCCN3CCC(C(=O)c4ccc(F)cc4)CC3)cc2o1 [Example 2, hydrochloride] . Value?
1.57e-06

# query: IC50 of entry Cl.O=C(c1ccc(F)cc1)C1CCN(CCCOc2ccc3c(=O)ccoc3c2)CC1 [Example 1, hydrochloride]
1.56e-06
